Tested on: catchweed bedstraw (galium; Galium aparine)
Test: Test D pre/postemergence
Assay type: in vivo
Settings: Preemergence, 62 g ai/ha, scale 0 to 100 (100 = complete control)
Protocol: […] At the same time, plants selected from these crop and weed species were treated with postemergence applications of some of the test chemicals formulated in the same manner. […] Treated plants and controls were maintained in a controlled growth environment for 15 to 25 days after which time all species were compared to controls and visually evaluated. […]
observation-type: Plant response rating, Galium
Lab note: record just the number, no unit beside it.

COC(=O)c1nc(-c2ccc(Cl)cc2)nc(N)c1Cl : 100
COC(=O)c1nc(C2CC2)nc(N)c1Cl : 100
CCOC(=O)c1nc(C2CC2)nc(N)c1Br : 100

Shifting focus to the molecule that follows.
### Prompt If you can, please state the reported Plant response rating, Galium value of CCOC(=O)Cc1nc(C2CC2)nc(N=CN(C)C)c1Br .
### Response 70

====

tested on: wheat (Triticum aestivum); test: Test B pre/postemergence; assay type: in vivo; conditions: Triticum aestivum, post-emergence, Postemergence, 500 g ai/ha; scale 0 to 100; read-out: Plant response rating, Wheat
observation-type: plant injury at 500 g/ha (%)
Numeric answer only, unit % assumed.

Reference set (3 entries):
Nc1nc(C2CC2)nc(C(=O)O)c1Br [Compound 8] : 0
Nc1nc(C2CC2)nc(C=O)c1Br [Compound 26] : 30
COC(=O)c1nc(-c2ccccc2)nc(N)c1Br [Compound 23] : 20

### Prompt If you can, please state the reported plant injury at 500 g/ha value of COC(=O)c1nc(C2CC2)nc(N)c1Br [Compound 2] .
### Response 70

====

In this section, each of the compounds is paired with its reported Plant response rating, Crabgrass.
system: crabgrass (Digitaria sanguinalis); experiment: Test A pre/postemergence; type: in vivo; conditions: Postemergence, 500 g ai/ha; 0 to 100 scale (0 no effect, 100 complete control)
Lab note: record just the number, no unit beside it.

Reference set (4 entries):
CCOC(=O)c1nc(-c2ccc(Cl)cc2F)nc(N)c1Br : 40
COC(=O)c1nc(-c2ccc(Cl)cc2)nc(N)c1Br : 10
CCOC(=O)c1nc(-c2ccc(Cl)cc2Cl)nc(N)c1Cl : 30
Nc1nc(C2CC2)nc(C(=O)O)c1Cl : 65

### Prompt If you can, please state the reported Plant response rating, Crabgrass value of CCOC(=O)c1nc(-c2ccc(C)c(C)c2)nc(N)c1Cl .
### Response 5

### Prompt If you can, please state the reported Plant response rating, Crabgrass value of CCOC(OCC)c1nc(-c2ccc(I)cc2)nc(N)c1Cl .
### Response 0

### Prompt If you can, please state the reported Plant response rating, Crabgrass value of CNc1nc(-c2ccc(Cl)cc2)nc(C(=O)OC)c1Cl .
### Response 30

### Prompt If you can, please state the reported Plant response rating, Crabgrass value of CCOC(=O)c1nc(-c2ccc(Cl)cc2Cl)nc(N)c1Br .
### Response 5

### Prompt If you can, please state the reported Plant response rating, Crabgrass value of CCOC(=O)COc1nc(-c2ccc(Cl)cc2)nc(N)c1Cl .
### Response 0

### Prompt If you can, please state the reported Plant response rating, Crabgrass value of Nc1nc(-c2ccc(Cl)cc2)nc(C(=O)O)c1Br .
### Response 85
